Readings of growth for the listed compounds
Test system: KM12 colon
Test: NCI-60 one-dose screen, 48 h (100 = growth as untreated, 0 = no growth, -100 = all killed)
Conditions: 10 µM unless noted
Compounds without any hit were thinned out: in the full panel of roughly 83,000, 20% have a hit.
Lab book: enter the figure in %, no units written.

CO[C@H]1/C=C/O[C@@]2(C)Oc3c(C)c(O)c4c(c3C2=O)C(=O)C(/C=N/N(c2ccccc2)c2ccccc2)=C(NC(=O)/C(C)=C\C=C\[C@H](C)[C@H](O)[C@@H](C)[C@@H](O)[C@@H](C)[C@H](OC(C)=O)[C@@H]1C)C4=O; -23.9
CCOC(=O)c1c(C)[nH]c(C(=O)CCC(=O)OC)c1C; 103
O=C(/C=C/C12c3ccccc3C(c3ccccc31)C1C(=O)NC(=O)C12)c1ccc(Cl)cc1 (stereo not drawn); -36.6

What growth appears in the records for this compound with KM12 colon? Clc1ccc(/C=N\N=c2\scc(-c3ccc(Cl)cc3)n2/N=C/c2ccc(Cl)cc2)cc1
105

Next compound up: NC(=S)c1csc(CCNC(=O)c2ccccc2)n1
109

Follow-up entry: C=C1C(=O)O[C@H]2[C@H]1CC/C(COC(=O)/C=C\C(=O)NCc1ccc(Cn3c(=O)sn(-c4ccc(Cl)cc4)c3=O)cc1)=C\CC[C@@]1(C)O[C@@H]21
-72.7

Same thing, different compound: Clc1ccc2[nH]c3c(NCCCN4CCOCC4)ncnc3c2c1
86.5

Let us now turn to CN(C)c1cnccn1
103

Next: N#Cc1c(N)n2c(nc1=Nc1ccc(Cl)cc1)sc1cc(Cl)ccc12
29.5

Request: COc1ccc(-n2sc(=O)n(Cc3ccc(COC(=O)C(C)c4ccc(CC(C)C)cc4)cc3)c2=O)cc1 (stereo not drawn)
85.8
